molecular target: Hsp90α-CT (human Hsp90α immobilized via the C-terminal) (Homo sapiens, UniProt P07900); test: Frontal chromatography on Hsp90α-CT column; type: binding
Measurement kind: Kd (µM)
Provide only the numeric value, understood in µM.

molecule="COc1cc2c3c(c1OC)Oc1ccc(cc1)C[C@@H]1c4c(cc(OC)c(OC)c4Oc4ccc(cc4)C[C@H]3N(C)CC2)CCN1C [Cycleanine, cycleanine]" study_system="Hsp90α-CT (human Hsp90α immobilized via the C-terminal) (Homo sapiens, UniProt P07900)" meas_value=143

Next item in the queue.
## Task Find the measured Kd of COc1ccc2cc1Oc1ccc(cc1)C[C@H]1c3c(cc4c(c3Oc3cc5c(cc3OC)CCN(C)[C@@H]5C2)OCO4)CCN1C [Cepharanthine, cepharanthine] and report it.
## Result 6.3

====

Consider compounds characterized by their Kd with Hsp90α-NT (human Hsp90α immobilized via the N-terminal) (Homo sapiens).
State just the number; it will be interpreted in µM.

compound="COc1cc2c3c(c1OC)Oc1ccc(cc1)C[C@@H]1c4c(cc(OC)c(OC)c4Oc4ccc(cc4)C[C@H]3N(C)CC2)CCN1C [Cycleanine, cycleanine]" meas_value=159

## Task For Hsp90α-NT (human Hsp90α immobilized via the N-terminal) (Homo sapiens), give the measured Kd of the entry COc1ccc2cc1Oc1ccc(cc1)C[C@H]1c3c(cc4c(c3Oc3cc5c(cc3OC)CCN(C)[C@@H]5C2)OCO4)CCN1C [Cepharanthine, cepharanthine]
## Result 5.3
